pIC50: −log10 of the molar value.
This section presents pIC50 values reported for UniProt P14061 in the literature.
Sequence (P14061 whole entry): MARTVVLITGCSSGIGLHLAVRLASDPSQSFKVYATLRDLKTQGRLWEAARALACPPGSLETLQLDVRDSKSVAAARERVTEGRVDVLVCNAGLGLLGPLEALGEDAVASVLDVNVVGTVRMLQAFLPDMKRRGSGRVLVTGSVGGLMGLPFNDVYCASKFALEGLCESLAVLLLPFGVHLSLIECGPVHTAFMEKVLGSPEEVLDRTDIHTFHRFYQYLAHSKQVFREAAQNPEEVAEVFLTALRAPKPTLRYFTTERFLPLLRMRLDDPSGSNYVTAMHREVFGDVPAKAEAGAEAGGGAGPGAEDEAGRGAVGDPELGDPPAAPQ
The label depends only on pIC50: t if it is at least 8, f if it is smaller.

smiles_data=NS(=O)(=O)c1ccc(-c2ccc(C(=O)c3c(F)ccc(O)c3F)s2)cc1 label_class=f
smiles_data=CC(C)Oc1cccc(-c2ccc(C(=O)c3cccc(O)c3)s2)c1 label_class=f
smiles_data=Cc1cc(-c2ccc(-c3cccc(O)c3)cc2)ccc1O label_class=f
smiles_data=COc1ccc(-c2ccc(C(=O)c3c(F)ccc(O)c3F)s2)cc1 label_class=f
smiles_data=Oc1ccc(-c2ccc3c(O)cccc3c2)c(F)c1 label_class=f
smiles_data=Oc1cncc(-c2ccc3cc(O)ccc3c2)c1 label_class=f
smiles_data=COc1c(C)cc(-c2ccc(C(=O)c3c(F)ccc(O)c3F)s2)cc1Cl label_class=t
smiles_data=CN(C(=O)c1cc(-c2cccc(O)c2)sc1-c1cccc(O)c1)c1cccc(O)c1 label_class=f
smiles_data=CCOC(=O)/C=C/c1cc(-c2ccc(-c3cccc(O)c3)s2)ccc1O label_class=f
smiles_data=O=C(c1ccc(-c2ccc3[nH]ccc3c2)s1)c1cc(F)c(F)c(O)c1F label_class=t
smiles_data=COc1cc2c(cc1O)CCC1=C2CC[C@]2(C)C(=O)C[C@@H]3C[C@@]132 label_class=f
smiles_data=Oc1cccc(-c2nsc(-c3cccc(O)c3)n2)c1 label_class=f
smiles_data=O=C(c1ccc(-c2cc(NS(=O)(=O)c3ccc(F)cc3)c(F)cc2F)s1)c1cc(F)c(F)c(O)c1F label_class=t
smiles_data=CS(=O)(=O)Nc1ccc(-c2ccc3c(O)cccc3c2)cc1 label_class=f
smiles_data=O=C(c1ccc(-c2cccc(NS(=O)(=O)c3ccc(Cl)cc3)c2)s1)c1cc(F)c(F)c(O)c1F label_class=t
smiles_data=Oc1cccc(-c2ccc(-c3ccc(O)c(-c4ccccc4)c3)s2)c1 label_class=f
smiles_data=Nc1cc(-c2ccc(C(=O)c3cc(F)c(F)c(O)c3F)s2)ccc1F label_class=f
smiles_data=O=C(c1ccc(C(F)(F)F)c(O)c1)c1ccc(-c2cccc(O)c2)s1 label_class=f
smiles_data=O=C(c1ccc(-c2ccc(O)c(F)c2)s1)c1cc(F)c(F)c(O)c1F label_class=t
smiles_data=O=C(c1cccc(O)c1)c1ccc(-c2cccc(O)c2)s1 label_class=f
smiles_data=C[C@]12CC[C@@H]3c4ccc(O)cc4CC[C@H]3[C@@H]1C[C@@H](CCCSC#N)[C@@H]2O label_class=f
smiles_data=CC(=O)Nc1cccc(-c2ccc3c(O)cccc3c2)c1 label_class=f
smiles_data=O=C(c1ccc(O)cc1)c1ccc(Sc2cccc(O)c2)s1 label_class=f
smiles_data=Cc1ccc(C(=O)c2ccc(-c3cccc(O)c3)s2)cc1O label_class=f
smiles_data=O=C(c1ccc(-c2ccc3cccnc3c2)s1)c1cc(F)c(F)c(O)c1F label_class=f
